Reported pIC50 values follow for various compounds
Molecular target: UniProtKB P17752
Sequence (P17752 1-444): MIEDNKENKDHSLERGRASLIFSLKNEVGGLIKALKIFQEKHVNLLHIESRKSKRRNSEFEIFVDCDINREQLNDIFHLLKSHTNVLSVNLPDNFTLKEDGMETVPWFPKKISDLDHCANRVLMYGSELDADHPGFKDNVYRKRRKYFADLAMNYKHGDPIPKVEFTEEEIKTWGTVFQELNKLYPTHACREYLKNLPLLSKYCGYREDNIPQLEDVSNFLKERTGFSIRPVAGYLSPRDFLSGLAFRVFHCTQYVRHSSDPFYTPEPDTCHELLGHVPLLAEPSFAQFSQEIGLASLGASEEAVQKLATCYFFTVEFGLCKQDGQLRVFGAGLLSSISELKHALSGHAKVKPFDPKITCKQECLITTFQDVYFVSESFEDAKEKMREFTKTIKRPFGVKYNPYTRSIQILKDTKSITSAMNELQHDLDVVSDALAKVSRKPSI
Assay: biochemical
pIC50: −log10 of the molar value.

Compound	pIC50
O=C(COc1ccc2ccccc2c1)N1CCc2nc3cc(C(F)(F)F)ccn3c2C1c1ccc(OC(F)F)cc1 (stereo not drawn) [Example 3.26.1]	6.92
COC(=O)c1ccc(C2c3c(nc4ccccn34)CCN2C(=O)COc2ccc(NS(C)(=O)=O)nc2Cl)c(F)c1 (stereo not drawn) [Example 1.15.1]	7.15
COc1ccc(C2c3c(nc4ccccn34)CCN2C(=O)COc2ccc3ccccc3c2)cc1O (stereo not drawn) [Example 1.9.1]	6.64
COc1ccc(C2c3c(nc4ccccn34)CCN2C(=O)COc2ccc(Cl)cc2Cl)cc1OC (stereo not drawn) [Example 1.1.4]	7.16
CS(=O)(=O)c1ccc(OCC(=O)N2CCc3nc4ccccn4c3C2c2ccc(Cl)cc2F)c(Cl)n1 (stereo not drawn) [Example 1.4.14]	6.54
COc1cc(C2c3c(nc4cc(C(F)(F)F)ccn34)CCN2C(=O)COc2ccc3ccccc3c2)cnc1OC (stereo not drawn) [Example 3.19.1]	7.52
O=C(COc1cccnc1Cl)N1CCc2nc3ccccn3c2C1c1ccc(Cl)cc1F (stereo not drawn) [Example 1.4.3]	6.57
COc1ccc(C2c3c(nc4cc(C(F)(F)F)ccn34)CCN2C(=O)COc2ccc(C)cc2)cc1OC (stereo not drawn) [Example 3.1.6]	7.15
CN(C)c1ccc(OCC(=O)N2CCc3nc4ccccn4c3C2c2ccc(Cl)cc2F)c(Cl)n1 (stereo not drawn) [Example 1.4.12]	7.24
COc1ccc(C2c3c(nc4ccccn34)CCN2C(=O)COc2ccc(CN3CCOCC3)nc2Cl)c(F)c1 (stereo not drawn) [Example 1.3.1]	7.08
COc1ccc(C2c3c(nc4cc(Cl)ccn34)CCN2C(=O)COc2ccc(CN3CCOCC3)cc2Cl)cc1OC (stereo not drawn) [Example 2.1.2]	7.18
O=C(COc1ccc(CN2CCOCC2)cc1Cl)N1CCc2nc3cc(C(F)(F)F)ccn3c2C1c1ccc(F)c(F)c1 (stereo not drawn) [Example 3.34.2]	6.62
COC(=O)c1ccc(C2c3c(nc4ccccn34)CCN2C(=O)COc2ccc(C(=O)NC3CC3)nc2Cl)c(F)c1 (stereo not drawn) [Example 1.15.2]	7.31
Cc1ccc(C2c3c(nc4cc(C(F)(F)F)ccn34)CCN2C(=O)COc2ccc(CN3CCOCC3)cc2Cl)cc1 (stereo not drawn) [Example 3.23.2]	7.49
COc1ccc(C2c3c(nc4cc(Cl)c(C)cn34)CCN2C(=O)COc2ccc3ccccc3c2)cc1OC (stereo not drawn) [Example 13.1.1]	7.40
COc1ccc(C2c3c(nc4cc(Cl)ccn34)CCN2C(=O)COc2ccc3ccccc3c2)cc1OC[C@@H](O)CO (stereo partly drawn) [Example 2.9.1]	7.52
CCc1nc(C)ccc1OCC(=O)N1CCc2nc3ccccn3c2C1c1ccc(C2CC2)cc1F (stereo not drawn) [Example 1.5.5]	7.54
O=C(COc1ccc2ccccc2c1)N1CCc2nc3cc(C(F)(F)F)ccn3c2C1c1ccc(F)cc1 (stereo not drawn) [Example 3.29.1]	6.51
CCc1cc(N2CCN(C)CC2)ccc1OCC(=O)N1CCc2nc3cc(C(F)(F)F)ccn3c2C1c1ccc(OC)c(OC)c1 (stereo not drawn) [Example 3.1.32]	7.68
COc1ccc(C2c3c(nc4cc(Cl)ccn34)CCN2C(=O)COc2ccc3ccccc3c2)cc1OC[C@H](O)CO (stereo partly drawn) [Example 2.10.1]	7.47
CN(CCO)c1ccc(OCC(=O)N2CCc3nc4ccccn4c3C2c2ccc(Cl)cc2F)c(Cl)n1 (stereo not drawn) [Example 1.4.10]	7.06
O=C(COc1ccc(CN2CCOCC2)cc1Cl)N1CCc2nc3cc(C(F)(F)F)ccn3c2C1c1cc2cccnc2s1 (stereo not drawn) [Example 3.49.2]	7.89
O=C(COc1cccnc1Cl)N1CCc2nc3cc(C(F)(F)F)ccn3c2C1c1ccc(Cl)cc1F (stereo not drawn) [Example 3.4.1]	7.36
COC(C)(C)c1ccc(C2c3c(nc4ccccn34)CCN2C(=O)COc2ccc(C(=O)NC3CC3)nc2Cl)c(F)c1 (stereo not drawn) [Example 1.17.1]	6.85
